Molecular target: UniProtKB P98170
Sequence (P98170 whole entry): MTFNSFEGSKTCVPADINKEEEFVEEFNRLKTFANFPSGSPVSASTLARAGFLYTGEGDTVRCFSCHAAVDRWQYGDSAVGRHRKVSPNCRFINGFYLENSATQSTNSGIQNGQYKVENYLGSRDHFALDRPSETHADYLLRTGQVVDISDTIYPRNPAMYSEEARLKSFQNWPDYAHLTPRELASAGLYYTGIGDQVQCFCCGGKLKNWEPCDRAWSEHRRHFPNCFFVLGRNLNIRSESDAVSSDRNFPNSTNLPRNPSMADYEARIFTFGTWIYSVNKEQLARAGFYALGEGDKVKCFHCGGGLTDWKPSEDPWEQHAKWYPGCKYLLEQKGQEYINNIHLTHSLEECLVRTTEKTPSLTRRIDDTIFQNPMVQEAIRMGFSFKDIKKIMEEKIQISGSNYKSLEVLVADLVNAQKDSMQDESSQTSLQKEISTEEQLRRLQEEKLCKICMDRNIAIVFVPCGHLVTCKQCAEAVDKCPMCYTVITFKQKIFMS
Assay: Binding affinity to recombinant XIAP BIR3 by FP assay
outcome measure: Ki (nM)

Use these answered entries as a reference point.
                             query_smiles     target_system  measured_number
0       CCCCCCCCCCCC1=C(O)C(=O)C=C(O)C1=O  UniProtKB P98170              400
1      O=C1C=C(O)C(=O)C(CCCCc2ccccc2)=C1O  UniProtKB P98170             1300
2  CCCCc1cccc(CCC2=C(O)C(=O)C=C(O)C2=O)c1  UniProtKB P98170              480

A. O=C1C=C(O)C(=O)C(CCc2ccccc2)=C1O
B. CCC1=C(O)C(=O)C=C(O)C1=O
Which shows the larger Ki value: A or B ? Respond using the label that marks the chosen record.
B

----------
System: PC-3
Test: Growth inhibition in human PC3 cell line
Format: functional, cell-based
outcome measure: IC50 (µM)
Note: unit µM is implicit; provide only the numeric part.

Name the reported IC50 value associated with the compound `Cc1cccc(CCc2cccc(CCC3=C(O)C(=O)C=C(O)C3=O)c2)c1`
5.5

Taken from ChEMBL document CHEMBL1139728.
